# credit: ChEMBL document CHEMBL1138357

- SYSTEM UNDER TEST: Melatonin receptor type 1A (Homo sapiens)
- Sequence (P48039 whole entry): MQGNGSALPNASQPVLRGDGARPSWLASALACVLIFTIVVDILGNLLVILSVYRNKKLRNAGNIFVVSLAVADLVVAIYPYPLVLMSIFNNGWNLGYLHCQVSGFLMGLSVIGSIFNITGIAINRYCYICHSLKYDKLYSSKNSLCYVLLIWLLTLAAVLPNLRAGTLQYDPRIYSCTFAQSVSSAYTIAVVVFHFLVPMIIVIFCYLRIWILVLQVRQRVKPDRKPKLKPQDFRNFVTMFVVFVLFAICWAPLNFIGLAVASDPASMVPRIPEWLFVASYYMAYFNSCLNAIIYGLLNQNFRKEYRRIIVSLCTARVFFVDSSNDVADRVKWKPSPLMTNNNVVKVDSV
pKi: −log10 of the molar value.

{"SMILES TEXT": "COc1cccc(N(CCNC(=O)C2CCC2)c2ccccc2)c1", "pKi": 6.49}
